Cited source for all entries: patent US20140271831A1

Assay: Racecadotril and degradation products over time in Acetate and Citrate at pH 3.6, 4.0, 4.5 (untitled table)
Format: physicochemical
Details: Acetate, pH 4.0, 2 week
Procedure: • 1. Pipet 1 mL of Racecadotril solution into a 100 mL volumetric flask (V.F.) • 2. Dilute to volume with the same buffer used in the solution preparation. • 3. […] Parameters may be modified to optimize chromatography. • The assay of Racecadotril is determined by using the external standard injected. The degradation products levels are determined by % peak area relative to the Racecadotril peak. [table] […]
experimentalEndpoint: Benz Alcohol (%)
Expressed in %, but write only the number.

**Q:** Supply reported Benz Alcohol belonging to this compound: CC(=O)SCC(Cc1ccccc1)C(=O)NCC(=O)OCc1ccccc1 (racemic) [Racecadotril]
**A:** 1.39
